target: HEK-293 cells transfected with dox-inducible human wild type FGFR1 (Homo sapiens (Human)); assay: FGFR1 pERK cell assay; type: cell-based; conditions: HEK-293 dox-inducible FGFR1, 1 hour compound, 100 ng/ml FGF-acidic; maximum concentration 5 μM
Sequence (P11362 22-822): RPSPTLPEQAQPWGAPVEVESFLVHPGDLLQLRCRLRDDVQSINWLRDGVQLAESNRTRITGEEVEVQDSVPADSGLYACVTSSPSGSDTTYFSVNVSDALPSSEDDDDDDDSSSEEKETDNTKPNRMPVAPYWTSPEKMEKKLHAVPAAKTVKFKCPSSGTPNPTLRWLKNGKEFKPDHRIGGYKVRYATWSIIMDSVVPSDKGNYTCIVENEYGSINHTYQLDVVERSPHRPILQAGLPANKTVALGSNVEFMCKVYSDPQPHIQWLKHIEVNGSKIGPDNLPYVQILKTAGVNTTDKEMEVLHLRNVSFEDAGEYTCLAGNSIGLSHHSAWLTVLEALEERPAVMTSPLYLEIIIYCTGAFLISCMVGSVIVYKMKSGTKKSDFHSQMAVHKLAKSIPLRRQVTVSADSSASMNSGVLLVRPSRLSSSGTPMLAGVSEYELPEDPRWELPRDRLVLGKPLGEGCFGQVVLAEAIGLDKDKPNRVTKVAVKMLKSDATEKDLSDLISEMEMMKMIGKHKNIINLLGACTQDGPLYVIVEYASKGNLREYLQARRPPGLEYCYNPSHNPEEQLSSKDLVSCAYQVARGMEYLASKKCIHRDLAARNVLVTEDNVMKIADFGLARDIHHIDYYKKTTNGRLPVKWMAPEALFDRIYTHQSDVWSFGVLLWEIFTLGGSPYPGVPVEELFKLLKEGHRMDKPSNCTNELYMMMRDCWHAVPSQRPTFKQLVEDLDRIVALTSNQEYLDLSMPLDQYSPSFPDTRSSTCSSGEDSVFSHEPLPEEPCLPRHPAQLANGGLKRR
Reported pIC50 by item:
Note: pIC50 values are expressed as the negative base-10 logarithm of concentration in M.

Here is how some compounds turned out for pIC50.
[
  {
    "compound": "C=CC(=O)N1CC(C(=O)N2C3CCC2CN(c2ccc(-c4cc(OC)c5c(C#N)cnn5c4)cn2)C3)C1 [Example 50]",
    "pIC50": 6.99
  },
  {
    "compound": "C=CC(=O)N1CC(CN2CCC(n3ncc(-c4cc(OC)c5c(Cl)cnn5c4)c3C)CC2)(OC)C1 [Example 119]",
    "pIC50": 6.23
  },
  {
    "compound": "C=CC(=O)N1CC(C(=O)N2CCN(c3cnc(-c4cc(OC)c5c(C#N)cnn5c4)cn3)CC2)C1 [Example 116]",
    "pIC50": 5.91
  },
  {
    "compound": "CCc1c(-c2cc(OC)c3c(C#N)cnn3c2)cnn1C1CCN(C(=O)C2(F)CN(C(=O)/C=C/CN(C)C)C2)CC1 [Example 162]",
    "pIC50": 5.84
  },
  {
    "compound": "COc1cc(-c2cnn(C3CCN(C(=O)C4CN(C(=O)C5=CCC5)C4)CC3)c2)cn2ncc(C#N)c12 [Example 137]",
    "pIC50": 6.00
  }
]

As a next step, examine the compound that follows.
Quick one: pIC50 of C=CC(=O)N1CC(O)(C(=O)N2CCC(n3ncc(-c4cc(OC)c5c(Cl)cnn5c4)c3C)CC2)C1 [Example 172] ?
5.48
